tested on: HCT-116; experiment: NCI tumour cell line growth inhibition, 48 h
The source made the active and inactive calls. Rule as the data show it: active = GI50 up to about 1.1 µM and inactive = higher.
Outcome codes: True = active, False = inactive

• CC1(c2ccc(F)cc2)CC(c2ccc(F)cc2)=C(C#N)C(=C(C#N)C#N)N1 (stereo not given) = False
• O=C(O)c1ccc(Nc2nc3ccccc3nc2-c2cccs2)cc1 = False
• Cc1[nH]c2ncn3ncnc3c2c1Cc1ccccc1 = False
• Cc1cnc(-n2c(C)nc3cc(Cl)ccc3c2=O)s1 = False
• CC1(c2cccc(C(F)(F)F)c2)CC(c2cccc(C(F)(F)F)c2)=C(C#N)C(=C(C#N)C#N)N1 (stereo not given) = False
• CC1(C)O[C@@H](CP(c2ccc3ccccc3c2)c2ccc3ccccc3c2)[C@H](CP(c2ccc3ccccc3c2)c2ccc3ccccc3c2)O1 = False
• CC(C)Cc1cnc(CC(C)C)c(=O)[nH]1 = False
• CCOC(=O)C1(C)CCCc2sc(N)c(C#N)c21 (stereo not given) = False
• CCN(CC)c1ccc(/C=C/C(=O)c2cc(C(C)(C)C)c(O)c(C(C)(C)C)c2)cc1 = False
• CN(C)c1ccc(-c2[nH]c(=O)c3ccccc3[n+]2C)cc1 = False
• O=C1CC(Br)c2c(Cl)sc(Cl)c21 (stereo not given) = False
• CC(=O)Oc1ccc2c(c1OC(C)=O)CCC1C2=CC[C@]2(C)C(=O)CCC12 (stereo not given in full) = False
• O=S(O)CCCCSSCCCCS(=O)(=O)S = False
• c1ccc(-c2sc(-c3ccccc3)c3c2C2CCC3C2)cc1 = False
• COc1cc2c(c(OC)c1OC)-c1ccc(SC)c(=O)cc1C(CO)C2 (stereo not given) = True
• CC(C)CC(N)C(=O)NC(C(=O)NC(CCCNC(=N)N)C(=O)NC(CS)C(=O)NC1CSCC(C(=O)NC(Cc2ccccc2)C(=O)NC(C(=O)NC(CCCNC(=N)N)C(=O)O)C(C)C)NC(=O)C2CCCN2C(=O)C(CCCCN)NC(=O)C2CCCN2C(=O)C2CCCN2C(=O)C(Cc2ccc(O)cc2)NC(=O)C(CO)NC(=O)C(CCCCN)NC(=O)C(C(C)O)NC(=O)C(Cc2c[nH]c3ccccc23)NC1=O)C(C)C (stereo not given) = False
• COCOCC1CCCN1CN1CCC[C@H]1COCOC (stereo not given in full) = False
• Clc1ccc2c(NCCCC/N=C/c3ccccc3)ccnc2c1 = False
• Cc1ccc2c(=O)[nH]sc2c1 = False
• N#CC(C(=O)CCC(=O)Nc1ccc(Cl)cc1)c1ccc(Cl)cc1 (stereo not given) = False

====

system: SF-295; assay: NCI tumour cell line growth inhibition, 48 h
The source made the active and inactive calls. No stated cut-off is given here; in the data, active = GI50 up to about 1.1 µM and inactive = higher.
Outcome codes: active, inactive

* O=C(c1ccccc1)c1ccc2[nH]c(-c3c(Cl)c(Cl)c(Cl)c(Cl)c3C(=O)N/N=C/c3ccc(Cl)cc3)nc2c1 | inactive
* CCOc1ccccc1NC(=O)CCc1n[nH]c(=S)o1 | inactive
* COC(=O)C1=C(C)NC2=C(C(=O)c3ccccc32)C1c1cn(-c2ccccc2)nc1-c1ccccc1 (stereo unspecified) | inactive
* OC(c1ccc(F)cc1)(c1ccc(F)cc1)C1CC1 | inactive
* Clc1ccc(N/N=C(\c2ccccc2)c2ccccn2)nc1 | active
* CC(C)(C)C(=O)OC(N)/C=C/c1ccccc1 (stereo unspecified) | inactive
* CCOC(=O)c1cccc(NC(=O)CBr)c1 | inactive
* CCOC(=O)c1nc2ccc(OC)cc2c2c1Cc1ccccc1-2 | inactive
* Clc1ccc2c(NCCCC/N=C/c3ccccc3)ccnc2c1 | inactive
* CC(C)(C)[Si](C)(C)OCC1OC(n2cnc3c(=O)[nH]c(N)nc32)C(O[Si](C)(C)C(C)(C)C)C1O[Si](C)(C)C(C)(C)C (stereo unspecified) | inactive
* O=C(C=P(c1ccccc1)(c1ccccc1)c1ccccc1)c1ccc(-c2cccs2)cc1 | inactive
* CC(C)C[C@H](NC(=O)[C@H](Cc1ccccc1)NC(=O)c1cnccn1)B(O)O [BORTEZOMIB] | active
* O=S1(=O)c2ccccc2N=C(c2ccccc2Cl)CC1c1ccc(F)cc1 (stereo unspecified) | inactive
* COc1ccc(C(OCC2OC(n3cc(C)c(=O)[nH]c3=O)CC2n2cc(Cn3cc(Br)c(=O)[nH]c3=O)nn2)(c2ccccc2)c2ccccc2)cc1 (stereo unspecified) | inactive
* CCCCOC(=O)C(O)Cc1ccoc1 (stereo unspecified) | inactive
* Oc1cc(-c2cccc(Cl)c2)nc2ncccc12 | active
* Cn1cnc([N+](=O)[O-])c1SCC(=O)O | inactive
* COc1ccccc1C1CC(=O)CC(c2ccccc2OC)C12C(=O)NC(=S)NC2=O (stereo unspecified) | inactive
* CCN(CC)CCOC(c1cc(OC)ccc1OC)c1ccc2n1-c1ccccc1OC2 (stereo unspecified) | inactive
* COc1cc2c(c(OC)c1OC)-c1ccc(SC)c(=O)cc1C(CO)C2 (stereo unspecified) | active
* O=C1c2ccccc2C(=O)N1CCCCNOCCCN1C(=O)c2ccccc2C1=O | inactive

====

tested on: SNB-78; test: NCI tumour cell line growth inhibition, 48 h
Active and inactive are the calls of the source. No stated cut-off is given here; in the data, active = GI50 up to about 1.1 µM and inactive = higher.
Outcome codes: 1 (yes) = active, 0 (no) = inactive

• O=C(COc1ccccc1)NS(=O)(=O)c1ccccc1 = 0 (no)
• COC(=O)C12OCC34C(CC5C(C)C6=CC(=O)OC6=CC5(C)C3C(O)C1O)OC(=O)C(O)C24 (stereo not given) = 1 (yes)
• COc1ccc(C(=O)C(c2ccc(OC)cc2)C2OC(=O)C(Cl)=C2Cl)cc1 (stereo not given) = 0 (no)
• CC1CC=CC(O)C1 (stereo not given) = 0 (no)
• COc1cc(C2c3cc4c(cc3[C@@H](Nc3cccc([N+](=O)[O-])c3)C3COC(=O)[C@H]23)OCO4)cc(OC)c1O (stereo not given in full) = 0 (no)
• Cc1cc(C)c(C2=NO[C@@H]3[C@H]2C(=O)C=C2N(Cc4ccccc4)CCO[C@@]23O)c(C)c1 = 0 (no)
• CN(C)CCNC(=O)c1ccc(Cl)c2ccc(-c3ccccc3)nc12 = 0 (no)
• CCOc1ccccc1NC(=O)CCc1n[nH]c(=S)o1 = 0 (no)
• O=C1CSc2cc([N+](=O)[O-])ccc2N1 = 0 (no)
• COC(=O)C(=O)C(C(=O)Nc1cccc(C)c1C)C1Sc2ccccc2NC1=O (stereo not given) = 0 (no)

====

tested on: OVCAR-5; assay: NCI tumour cell line growth inhibition, 48 h
Calls of active or inactive are those of the source. Rule as the data show it: active = GI50 up to about 1.1 µM and inactive = higher.
property_measured: GI50

• CCCCCC1CC=CC(NC(=O)OCc2ccccc2)C1/C=C/CCCC1OCCO1 (configuration not stated) = > 53.8 µM (inactive)
• CCOc1cc2oc(C)cc(=O)c2c(OC)c1/C=N/c1ccc(Cn2c(C)nc3ccccc32)cc1 = > 100 µM (inactive)
• CCN(CC)CCOC(c1cc(OC)ccc1OC)c1ccc2n1-c1ccccc1OC2 (configuration not stated) = 15.8 µM (inactive)
• Nc1nc(F)nc2c1ncn2C1OC(COP(=O)(O)O)C(O)C1O (configuration not stated) = 41.9 µM (inactive)
• Cc1cccc(-c2nnc(S)[nH]2)c1 = > 100 µM (inactive)
• CC(=O)OCc1cc(=O)n2c([nH]c3ccccc32)c1C#N = > 100 µM (inactive)
• COc1cc(/C=C(\C)[N+](=O)[O-])cc(OC)c1 = 20.1 µM (inactive)
• CC(C)Cc1cnc(CC(C)C)c(=O)[nH]1 = > 100 µM (inactive)
• CN(C)C(=N)NC(N)=S = > 100 µM (inactive)
• COC(=O)c1c2c(cc3c1CC1(C3)Cc3cc4c(c(C(C)=O)c3C1)CCC4)C=CC2 (configuration not stated) = > 31.6 µM (inactive)
• O=C(Nc1nnc(-c2ccc(Cl)cc2)o1)C(SC(=S)N1CCCCC1)c1ccccc1 (configuration not stated) = 21.5 µM (inactive)
• COc1ccccc1-n1cnc2c1=NC(C)(C)NC=2C(N)=O = > 100 µM (inactive)
• Cc1cccc(C)c1NC(=O)C(=O)Cc1nc2ccccc2s1 = > 100 µM (inactive)
• CCCCCC(=O)Nc1[nH]nnc1C(N)=O = > 100 µM (inactive)
• C[C@]12CC[C@@H]3c4cc(I)c(O)cc4CC[C@H]3[C@@H]1CC[C@@H]2O = 12.7 µM (inactive)
• O=c1[nH]cnc2sc(=S)c3c(c12)CCC3 = 47.8 µM (inactive)
• O=C(c1ccc(O)c([N+](=O)[O-])c1)c1ccc(O)c([N+](=O)[O-])c1 = > 100 µM (inactive)
• CC(O)CCCCC(O)CCC[C@H](O)[C@H]1CCC([C@H]2CCC([C@@H](O)CCCCCCCCCCCCC3=C[C@H](C)OC3=O)O2)O1 (some centres not stated) = 11.4 µM (inactive)
• COc1ccc2nc3c(nc2c1)C(C)(C)C=C3c1ccc(Br)cc1 = > 100 µM (inactive)
• CCCCCc1cc2cc3c(c(O)c2c(=O)[nH]1)C1(CC3)C(=O)c2c(O)c3c(c(O)c2C1=O)C(=O)C(OC)=CC3=O (configuration not stated) = 2.98 µM (inactive)
• N#CC12Cc3ccc4c(c3-c3cccc(c31)CCN2C(=O)c1ccccc1)OCO4 (configuration not stated) = > 100 µM (inactive)
• O=C(O)/C(Cl)=C(/Cl)C(=O)Nc1cccc(Cl)c1 = 19.7 µM (inactive)
